- Procedure Text: Rat pharmacokinetic studies of prodrug and released riluzole (IV or oral)
- Type: in vivo, Sprague-Dawley rats
- Setup Conditions: rat, plasma; fasted male Sprague Dawley rats, IV, prodrug dose 1.8 mg/Kg; read-out: Compound of the disclosure AUClast
Measurement Name: AUC(0-t) (ng·h/mL)
Provide only the numeric value, understood in ng·h/mL.

Query: AUC(0-t) for CNCC(=O)NC1(C(=O)Nc2nc3ccc(OC(F)(F)F)cc3s2)CCC1 ?
Response: 1720

* * *

- Procedure Text: Rat pharmacokinetic studies of prodrug and released riluzole (IV or oral)
- Type: in vivo, Sprague-Dawley rats
- Setup Conditions: rat, plasma; fasted male Sprague Dawley rats, IV, prodrug dose 2.8 mg/Kg; read-out: Compound of the disclosure Vss
# log10 of Vd listing for each entry below
log10 Vd, L/kg

Here are 2 molecules together with their reported answers.
{"columns": ["Smiles Notation", "log10 of Vd"],
 "data": [
  ["CCNCC(=O)N(C)CC(=O)Nc1nc2ccc(OC(F)(F)F)cc2s1", 0.31],
  ["CC(C)(CN)C(=O)N1CCC[C@H]1C(=O)Nc1nc2ccc(OC(F)(F)F)cc2s1", 0.71]
]}

Query: log10 of Vd for CN(CC(=O)Nc1nc2ccc(OC(F)(F)F)cc2s1)C(=O)CNC(=O)CN ?
Response: 0.39

Query: Do the same for NCC1(C(=O)N2CCC[C@@H]2C(=O)Nc2nc3ccc(OC(F)(F)F)cc3s2)CCCCC1 please
Response: 0.98

* * *

# AUC(0-t) listing for each entry below
- Procedure Text: Rat pharmacokinetic studies of prodrug and released riluzole (IV or oral)
- Format: in vivo, Sprague-Dawley rats
- Setup Conditions: rat, plasma; fasted male Sprague Dawley rats, IV, prodrug dose 2.8 mg/Kg; read-out: Compound of the disclosure AUClast

Here are 3 compounds together with their reported answers.
{"columns": ["Smiles Notation", "AUC(0-t)"],
 "data": [
  ["CCNCC(=O)N1CCC[C@@H]1C(=O)Nc1nc2ccc(OC(F)(F)F)cc2s1", "3620 ng·h/mL"],
  ["CN(CC(=O)Nc1nc2ccc(OC(F)(F)F)cc2s1)C(=O)CNC(=O)CN", "232 ng·h/mL"],
  ["CN(CC(=O)Nc1nc2ccc(OC(F)(F)F)cc2s1)C(=O)CNC1COC1", "3240 ng·h/mL"]
]}

Query: AUC(0-t) for CN(CC(=O)Nc1nc2ccc(OC(F)(F)F)cc2s1)C(=O)C(C)(C)CN ?
Response: 2480 ng·h/mL

Query: Do the same for CNCC(=O)NC(C)(C)C(=O)Nc1nc2ccc(OC(F)(F)F)cc2s1 please
Response: 4650 ng·h/mL

Query: Do the same for CN(CC(=O)Nc1nc2ccc(OC(F)(F)F)cc2s1)C(=O)C1(CN)CC1 please
Response: 1720 ng·h/mL

Query: Do the same for CN(CC(=O)Nc1nc2ccc(OC(F)(F)F)cc2s1)C(=O)C1(CN)CCCCC1 please
Response: 1290 ng·h/mL

Query: Do the same for CN(CC(=O)Nc1nc2ccc(OC(F)(F)F)cc2s1)C(=O)C1(CN)CCCC1 please
Response: 2460 ng·h/mL

* * *

- Procedure Text: Rat pharmacokinetic studies of prodrug and released riluzole (IV or oral)
- Assay type: in vivo, Sprague-Dawley rats
- Setup Conditions: rat, plasma; fasted male Sprague Dawley rats, IV, prodrug dose 1.8 mg/Kg; read-out: Compound of the disclosure Vss
Measurement Name: Vd (L/kg)
Provide only the numeric value, understood in L/kg.

Query: Vd for CNCC(=O)NC1(C(=O)Nc2nc3ccc(OC(F)(F)F)cc3s2)CCC1 ?
Response: 5.06

* * *

- Procedure Text: PK in fasted male mice, prodrug and released riluzole (IV, PO)
- Setup Conditions: mouse, in vivo, PO 5 mg/kg, read-out: Prodrug AUClast (Mean)
Measurement Name: AUC(0-t) (ng·h/mL)
Provide only the numeric value, understood in ng·h/mL.

Query: AUC(0-t) for CN(CC(=O)Nc1nc2ccc(OC(F)(F)F)cc2s1)C(=O)CNC(=O)CN [Example 204] ?
Response: 3.85

* * *

- Procedure Text: PK in fasted male mice, prodrug and released riluzole (IV, PO)
- Setup Conditions: mouse, in vivo, IV 1 mg/kg, read-out: Prodrug AUCinf (Mean)
Measurement Name: AUC(0-inf)
Answer by giving the amount and then stating its unit.

Query: AUC(0-inf) for CN(CC(=O)Nc1nc2ccc(OC(F)(F)F)cc2s1)C(=O)CNC(=O)CN ?
Response: 533 ng·h/mL

* * *

- Procedure Text: Rat pharmacokinetic studies of prodrug and released riluzole (IV or oral)
- Type: in vivo, Sprague-Dawley rats
- Setup Conditions: rat, plasma; fasted male Sprague Dawley rats, IV, prodrug dose 2.8 mg/Kg; read-out: Compound of the disclosure t1/2 (converted)
- Description: Rat Pharmacokinetic Studies of the Compounds of the Disclosure: Blood samples were collected at pre-determined time points including a 0 h time point and usually between 7 and 8 additional time points not exceeding a 24 h period. Plasma samples were extracted and analyzed using the methods described in Plasma Sample Extraction and Analysis. All data are expressed as ng/mL of the free base. Samples that were below the limit of quantification (0.5 ng/mL) were not used in the calculation of averages. […]
# log10 half-life listing for each entry below
log10 half-life, h

Here are 8 compounds together with their reported answers.
{"columns": ["Compound", "log10 half-life"],
 "data": [
  ["CN(CC(=O)Nc1nc2ccc(OC(F)(F)F)cc2s1)C(=O)C1(CN)CCCC1 [Example 120]", 0.94],
  ["CN(CC(=O)Nc1nc2ccc(OC(F)(F)F)cc2s1)C(=O)C(C)(C)CN [Example 118]", 1.02],
  ["CC(C)(CN)C(=O)N1CCC[C@H]1C(=O)Nc1nc2ccc(OC(F)(F)F)cc2s1 [Example 59]", 0.79],
  ["NCC(=O)NC1(C(=O)Nc2nc3ccc(OC(F)(F)F)cc3s2)CCC1 [Example 82]", 0.01],
  ["CCNCC(=O)N1CCC[C@@H]1C(=O)Nc1nc2ccc(OC(F)(F)F)cc2s1 [Example 52]", 0.68],
  ["CN(CC(=O)Nc1nc2ccc(OC(F)(F)F)cc2s1)C(=O)CNC(=O)CN [Example 204]", -0.63],
  ["CN(CC(=O)Nc1nc2ccc(OC(F)(F)F)cc2s1)C(=O)C1(CN)CCCCC1 [Example 121]", 0.68],
  ["CN(CC(=O)Nc1nc2ccc(OC(F)(F)F)cc2s1)C(=O)CNC1CCNCC1 [Example 216]", 0.60]
]}

Query: log10 half-life for CCNCC(=O)N(C)CC(=O)Nc1nc2ccc(OC(F)(F)F)cc2s1 [Example 123] ?
Response: -0.17

Query: Do the same for CC(C)NCC(=O)N(C)CC(=O)Nc1nc2ccc(OC(F)(F)F)cc2s1 [Example 124] please
Response: -0.20

Query: Do the same for CC(C)NCC(=O)NC(C)(C)C(=O)Nc1nc2ccc(OC(F)(F)F)cc2s1 [Example 113] please
Response: 0.74

Query: Do the same for CNCC(=O)N(C)CC(=O)Nc1nc2ccc(OC(F)(F)F)cc2s1 [Example 122] please
Response: -0.55

Query: Do the same for NCC1(C(=O)N2CCC[C@@H]2C(=O)Nc2nc3ccc(OC(F)(F)F)cc3s2)CCCCC1 [Example 173] please
Response: 0.83

* * *

- Procedure Text: PK in fasted male mice, prodrug and released riluzole (IV, PO)
- Setup Conditions: mouse, in vivo, IV 1 mg/kg, read-out: Prodrug AUClast (Mean)
Measurement Name: AUC(0-t) (ng·h/mL)
Provide only the numeric value, understood in ng·h/mL.

Query: AUC(0-t) for CN(CC(=O)Nc1nc2ccc(OC(F)(F)F)cc2s1)C(=O)CNC(=O)CN ?
Response: 532

* * *

- Procedure Text: Rat pharmacokinetic studies of prodrug and released riluzole (IV or oral)
- Type: in vivo, Sprague-Dawley rats
- Setup Conditions: rat, plasma; fasted male Sprague Dawley rats, PO 5 mg/kg
Measurement Name: Tmax (h)
Provide only the numeric value, understood in h.

{"columns": ["Smiles Notation", "Unit Tag", "Tmax"],
 "data": [
  ["CN(CC(=O)Nc1nc2ccc(OC(F)(F)F)cc2s1)C(=O)CNC(=O)CN", "h", 0.28]
]}

Query: Tmax for CN(CC(=O)Nc1nc2ccc(OC(F)(F)F)cc2s1)C(=O)CNC1CCNCC1 ?
Response: 2.17

* * *

- Procedure Text: Rat pharmacokinetic studies of prodrug and released riluzole (IV or oral)
- Assay type: in vivo, Sprague-Dawley rats
- Setup Conditions: rat, plasma; fasted male Sprague Dawley rats, IV, prodrug dose 2.8 mg/Kg; read-out: Compound of the disclosure Vss
# Vd listing for each entry below
Provide only the numeric value, understood in L/kg.

{"columns": ["Compound", "Vd / L/kg"],
 "data": [
  ["CNCC(=O)N(C)CC(=O)Nc1nc2ccc(OC(F)(F)F)cc2s1 [Example 122]", 0.861],
  ["CN(CC(=O)Nc1nc2ccc(OC(F)(F)F)cc2s1)C(=O)CNC(C)(C)C [Example 125]", 3.51],
  ["CN(CC(=O)Nc1nc2ccc(OC(F)(F)F)cc2s1)C(=O)C(C)(C)CN [Example 118]", 3.35]
]}

Query: Vd for CCNCC(=O)N1CCC[C@@H]1C(=O)Nc1nc2ccc(OC(F)(F)F)cc2s1 [Example 52] ?
Response: 3.55

All figures here come from patent US10639298B2.
